test system: HS 578T breast; assay: NCI tumour cell line growth inhibition, 48 h
Entries and their measured TGI follow.
assay_endpoint: TGI

sample_smiles=Cc1cc2cc(Oc3ccnc(Nc4cccc(CS(=O)(=O)NCCN(C)C)c4)n3)ccc2[nH]1 recorded_result="29.5 µM"
sample_smiles=C[n+]1ccccc1/C=C/c1ccc2c(c1)OCO2 recorded_result="> 10 µM"
sample_smiles=CCOC(=O)c1c(SCC#N)n(-c2ccccc2)c(=S)n(-c2ccccc2)c1=O recorded_result="> 100 µM"
sample_smiles=CNC(=S)N/N=C(\C)c1ccc(OC)cc1O recorded_result="> 100 µM"
sample_smiles=COc1ccc(-n2c(C)nc3ccc(N=Cc4ccccc4)cc3c2=O)cc1 recorded_result="> 100 µM"
sample_smiles=CN(C)CCNc1ccc2nnn3c4ccc(Cl)cc4c(=O)c1c23 recorded_result="13.5 µM"
sample_smiles=C[C@H](C(=O)N1C(=O)O[C@@H](c2ccccc2)[C@H]1C)[C@H](c1ccccc1)N(Cc1ccccc1)OC(=O)c1ccccc1 recorded_result="> 100 µM"

====

Entries and their measured TGI follow.
system: COLO 205 colon; test: NCI tumour cell line growth inhibition, 48 h
assay_endpoint: TGI

compound=COc1ccccc1NC(=O)N/C(N)=N/c1nc2ccccc2s1 assay_endpoint=TGI recorded_result="> 100 µM"
compound=O=C(/C=C/c1ccccc1)c1ccc(O)c(CN2CCN(c3cc4c(cc3F)c(=O)c(C(=O)O)cn4C3CC3)CC2)c1 assay_endpoint=TGI recorded_result="74.5 µM"
compound="C=CCCC12CCCC(=O)C1Sc1ccc3ccccc3c12 (centres undefined)" assay_endpoint=TGI recorded_result="29.1 µM"
compound="CCOC(=O)C1=C(C)N(Cc2ccc(Cl)cc2Cl)C2(O)C(OC)CC(=O)C3C(=O)N(c4ccccc4)C(=O)C132 (centres undefined)" assay_endpoint=TGI recorded_result="13.4 µM"
compound=Cc1occc1C(=S)Nc1ccc(Cl)c(C(=O)OCC2CC2)c1 assay_endpoint=TGI recorded_result="> 100 µM"
compound=CC(C)NCCCNC1=C(Cl)C(=O)c2ccccc2C1=O assay_endpoint=TGI recorded_result="3.56 µM"
compound=S=C(NNC1=NCCCCN1)Nc1ccccc1 assay_endpoint=TGI recorded_result="> 100 µM"
compound=COc1ccc(CNCCCN2C(=O)c3ccc4c5c(ccc(c35)C2=O)C(=O)N(CCCNCCCCNCCCN)C4=O)c(OC)c1OC assay_endpoint=TGI recorded_result="0.391 µM"
compound="O=C1c2ccccc2N2OC3C4CCC(C4)C3C12c1ccccc1 (centres undefined)" assay_endpoint=TGI recorded_result="> 100 µM"
compound=COc1cc2c3c(n(CCCn4cccn4)c(=O)c2cc1OC)-c1cc2c(cc1C3=O)OCO2 assay_endpoint=TGI recorded_result="> 100 µM"
compound="CCCCCCCCCCCCCCCCCCNc1ccn(C2OC(COP(=O)(O)OCCCCCCCCCCCCCCCC)C(O)C2O)c(=O)n1 (centres undefined)" assay_endpoint=TGI recorded_result="> 100 µM"
compound=COc1cccc(N2CCc3c(C)c(C#N)c4nc5ccccc5n4c32)c1 assay_endpoint=TGI recorded_result="> 100 µM"
compound=COc1ccc(CCNC(=O)Cc2ccccc2CCO)cc1OC assay_endpoint=TGI recorded_result="> 100 µM"
compound="CC(=O)NC1C(OCc2ccccc2)OC(CO)C(O)C1OCC(=O)NC(C)C(=O)NC(CCC(=O)OCCNC(=O)c1cccc2cc3ccccc3nc12)C(N)=O (centres undefined)" assay_endpoint=TGI recorded_result="64.8 µM"
compound=COc1cc2c(cc1OC)[C@]1(O)C(=O)c3ccc4c(c3O[C@@H]1CO2)C[C@H](C(C)(C)O)O4 assay_endpoint=TGI recorded_result="> 100 µM"
compound=CO/N=C(\COc1ccc2c(=O)cc(-c3ccccc3)oc2c1)c1ccc(OC)cc1 assay_endpoint=TGI recorded_result="> 100 µM"
compound=Oc1ccc2ccccc2c1N=Nc1ccc(N=Nc2ccccc2)cc1 assay_endpoint=TGI recorded_result="> 100 µM"
compound=COc1ccc(/C=C/c2cc(=O)cc(/C=C/c3ccc(OC)c(O)c3)o2)cc1O assay_endpoint=TGI recorded_result="> 61.1 µM"
compound=CCN(CCc1ccc(F)cc1)c1ccc(CO)c(Cl)c1 assay_endpoint=TGI recorded_result="21.5 µM"
compound=Nc1nc(Cl)cc(NCCCCO)n1 assay_endpoint=TGI recorded_result="> 100 µM"
compound=CNC(=S)N/N=C(\C)c1ccc(OC)cc1O assay_endpoint=TGI recorded_result="> 100 µM"
compound="C/C(=N\\O)C(CN(C)C)C(c1ccccc1)c1c(O)c2ccccc2oc1=O (centres undefined)" assay_endpoint=TGI recorded_result="> 100 µM"
compound="Cc1ccc(S(=O)(=O)NC(C)C(=O)O)cc1 (centres undefined)" assay_endpoint=TGI recorded_result="> 100 µM"
compound=O=C(C1=CCC2(CC1)OCCO2)N(Cc1ccccc1)c1ccccc1I assay_endpoint=TGI recorded_result="36.5 µM"
compound="CN1C(=O)NC2(O)c3ccccc3C(=O)C12O (centres undefined)" assay_endpoint=TGI recorded_result="> 100 µM"
compound=CC[O+]=c1cccc2ssnc1-2 assay_endpoint=TGI recorded_result="> 100 µM"
compound=COc1cc2c(c(OC)c1OC)C(=O)c1c-2n(CCCN)c(=O)c2cc([N+](=O)[O-])ccc12 assay_endpoint=TGI recorded_result="6.3 µM"
compound="Cc1cc(Cl)ccc1N1C(=O)C(=O)C(c2nc3ccccc3s2)/C(=N\\NC(=O)c2ccccc2O)C1=O (centres undefined)" assay_endpoint=TGI recorded_result="> 100 µM"
compound=O=C1c2ccccc2C(=O)N1C/C=N/NS(=O)(=O)c1ccc(Cl)cc1 assay_endpoint=TGI recorded_result="> 100 µM"
compound=c1ccc(CN2CCC3(CC2)ONC2=NCCN23)cc1 assay_endpoint=TGI recorded_result="> 100 µM"
compound=Cc1c(Cl)c(S(N)(=O)=O)cc(S(N)(=O)=O)c1NC(=O)c1ccc(Cl)cc1 assay_endpoint=TGI recorded_result="> 100 µM"
compound=O=c1oc2ccccc2c(O)c1C(c1ccc([N+](=O)[O-])cc1)c1c(O)c2ccccc2oc1=O assay_endpoint=TGI recorded_result="> 100 µM"
compound=CCCCn1c(=O)c(/C=C/C(=O)/C=C/c2ccc(O)c(OC)c2)cc2ccc(Cl)cc21 assay_endpoint=TGI recorded_result="4.83 µM"
compound="CCCNCC(O)/C=C/[Si](C)(C)C (centres undefined) (tested in a mixture with another compound)" assay_endpoint=TGI recorded_result="> 100 µM"
